- TEST_TARGET: PI 3-kinase beta (Homo sapiens (Human))
- Sequence (P42338 whole entry, looked up): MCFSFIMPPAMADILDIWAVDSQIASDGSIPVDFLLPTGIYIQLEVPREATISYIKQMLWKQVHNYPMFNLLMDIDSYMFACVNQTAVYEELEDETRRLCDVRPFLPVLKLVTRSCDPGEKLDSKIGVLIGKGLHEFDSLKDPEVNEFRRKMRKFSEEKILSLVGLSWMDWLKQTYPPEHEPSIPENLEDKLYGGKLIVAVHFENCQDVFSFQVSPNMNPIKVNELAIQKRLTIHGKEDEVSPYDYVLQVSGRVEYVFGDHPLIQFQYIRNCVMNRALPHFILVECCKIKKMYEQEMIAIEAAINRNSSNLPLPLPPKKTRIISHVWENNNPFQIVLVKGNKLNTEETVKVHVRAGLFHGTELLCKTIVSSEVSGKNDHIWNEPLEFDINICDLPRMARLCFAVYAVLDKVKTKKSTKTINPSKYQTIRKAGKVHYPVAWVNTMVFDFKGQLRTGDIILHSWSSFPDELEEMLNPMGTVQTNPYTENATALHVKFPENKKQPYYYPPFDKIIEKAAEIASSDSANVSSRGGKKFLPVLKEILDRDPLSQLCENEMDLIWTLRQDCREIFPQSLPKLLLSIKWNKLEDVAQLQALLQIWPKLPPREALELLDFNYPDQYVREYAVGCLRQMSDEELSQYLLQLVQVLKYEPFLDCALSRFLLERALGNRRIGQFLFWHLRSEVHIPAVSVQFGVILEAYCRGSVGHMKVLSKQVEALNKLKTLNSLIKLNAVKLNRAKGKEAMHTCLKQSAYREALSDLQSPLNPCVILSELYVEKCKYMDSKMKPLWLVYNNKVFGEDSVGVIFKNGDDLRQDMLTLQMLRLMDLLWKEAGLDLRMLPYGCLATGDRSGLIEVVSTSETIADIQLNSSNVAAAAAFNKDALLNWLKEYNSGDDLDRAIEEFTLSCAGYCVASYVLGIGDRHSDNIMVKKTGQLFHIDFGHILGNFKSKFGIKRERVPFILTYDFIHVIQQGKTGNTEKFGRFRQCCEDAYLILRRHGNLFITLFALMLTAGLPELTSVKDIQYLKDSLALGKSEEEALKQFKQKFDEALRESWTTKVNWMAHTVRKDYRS
- Sequence (P27986 whole entry partner, looked up): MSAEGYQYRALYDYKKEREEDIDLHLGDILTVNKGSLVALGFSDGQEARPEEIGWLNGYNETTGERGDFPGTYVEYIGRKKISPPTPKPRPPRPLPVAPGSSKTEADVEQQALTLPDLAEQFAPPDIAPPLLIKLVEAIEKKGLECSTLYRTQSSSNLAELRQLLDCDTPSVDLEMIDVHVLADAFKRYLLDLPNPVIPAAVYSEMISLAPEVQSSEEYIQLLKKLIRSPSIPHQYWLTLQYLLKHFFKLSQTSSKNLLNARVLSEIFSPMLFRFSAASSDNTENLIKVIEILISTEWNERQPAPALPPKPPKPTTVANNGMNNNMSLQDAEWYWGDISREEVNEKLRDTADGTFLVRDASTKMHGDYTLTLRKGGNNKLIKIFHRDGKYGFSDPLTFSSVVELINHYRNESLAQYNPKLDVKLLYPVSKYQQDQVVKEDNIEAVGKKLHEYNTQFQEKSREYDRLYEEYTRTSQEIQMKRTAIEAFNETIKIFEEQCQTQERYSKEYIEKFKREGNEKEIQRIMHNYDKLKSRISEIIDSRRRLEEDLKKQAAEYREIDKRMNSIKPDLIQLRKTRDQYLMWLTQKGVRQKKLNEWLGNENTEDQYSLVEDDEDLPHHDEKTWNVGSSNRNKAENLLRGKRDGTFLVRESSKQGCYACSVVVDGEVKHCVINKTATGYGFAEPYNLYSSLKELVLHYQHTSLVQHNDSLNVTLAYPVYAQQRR
# strict inequality: IC50 < 3000 nM yields true, everything else yields false

Cc1ncc(-c2cc(-c3cc(S(=O)(=O)NC(CO)C(F)(F)F)ccc3C)cnc2N)o1 (stereo not shown) ... true

Asked: Record Cc1ncc(-c2cc(-c3cc(S(=O)(=O)N[C@H]4CCC[C@H](O)C4)ccc3C)cnc2N)o1 : is its IC50 strictly below 3000 nM?
Given back: true

Asked: Find out if reported IC50 for Cc1ccc(S(=O)(=O)N[C@H]2CC[C@H](O)CC2)cc1-c1cnc(N)c(-c2nc(CC(F)(F)F)no2)c1 is less than 3000 nM
Given back: true

Asked: is_below(IC50, 3000 nM) for Cc1ncc(-c2cc(-c3cc(S(=O)(=O)NCC4COC4)ccc3C)cnc2N)s1 ?
Given back: false

Asked: Given Cc1ccc(S(=O)(=O)N[C@H]2CC[C@H](O)CC2)cc1-c1cnc(N)c(-c2cnn(C)c2)c1 , is recorded IC50 strictly lower than 3000 nM?
Given back: true

Asked: Input Cc1ncc(-c2cc(-c3cc(S(=O)(=O)N4CC(CO)C4)ccc3C)cnc2N)s1 ; condition: IC50 strictly below 3000 nM. Does it hold?
Given back: true

----------
- TEST_TARGET: PI 4-kinase beta (Homo sapiens (Human))
- Sequence (Q9UBF8 whole entry): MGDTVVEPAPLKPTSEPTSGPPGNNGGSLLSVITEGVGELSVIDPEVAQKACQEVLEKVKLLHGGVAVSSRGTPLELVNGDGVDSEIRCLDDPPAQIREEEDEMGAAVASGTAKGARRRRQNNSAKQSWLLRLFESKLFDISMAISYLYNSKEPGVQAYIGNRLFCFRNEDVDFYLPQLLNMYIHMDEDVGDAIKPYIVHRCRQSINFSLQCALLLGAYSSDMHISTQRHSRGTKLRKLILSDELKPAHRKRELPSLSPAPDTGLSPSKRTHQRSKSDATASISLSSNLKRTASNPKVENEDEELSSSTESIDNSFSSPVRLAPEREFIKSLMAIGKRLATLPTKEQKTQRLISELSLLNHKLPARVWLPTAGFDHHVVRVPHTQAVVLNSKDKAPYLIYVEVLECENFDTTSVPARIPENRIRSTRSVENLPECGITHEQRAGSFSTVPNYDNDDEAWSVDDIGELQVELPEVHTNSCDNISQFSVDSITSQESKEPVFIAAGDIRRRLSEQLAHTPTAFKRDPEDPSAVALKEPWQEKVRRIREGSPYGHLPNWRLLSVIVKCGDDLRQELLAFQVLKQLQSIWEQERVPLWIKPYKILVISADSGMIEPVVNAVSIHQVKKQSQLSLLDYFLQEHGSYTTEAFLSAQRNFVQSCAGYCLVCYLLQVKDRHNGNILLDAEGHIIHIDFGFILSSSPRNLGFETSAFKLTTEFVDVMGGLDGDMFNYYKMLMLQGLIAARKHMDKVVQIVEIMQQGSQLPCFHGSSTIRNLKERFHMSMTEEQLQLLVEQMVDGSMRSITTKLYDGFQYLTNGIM
Structures can show the parent of a compound that is named as a salt.
The reader will find reported pIC50 values listed item by item below.
To interpret pIC50, take it as minus log10 of a concentration measured in moles per litre.

Answered cases to consult:
COC[C@@H]1COCCN1S(=O)(=O)c1ccc(C)c(-c2cnc(N)c(-c3cc(C)no3)c2)c1 [Example 19.20, trifluoroacetic acid salt] ... 5.38
Cc1ccc(S(=O)(=O)NCCC(C)(C)O)cc1-c1cnc(N)c(-c2nc(CC(F)(F)F)no2)c1 ... 5.55
Cc1cnc(-c2cc(-c3cc(S(=O)(=O)N[C@H]4CC[C@H](O)CC4)ccc3C)cnc2N)o1 [Example 5.2, hydrochloride] ... 6.05

# next compound below
Asked: Give PI 4-kinase beta (Homo sapiens (Human)) pIC50 for Cc1cc(-c2cc(-c3cc(S(=O)(=O)N4CCCC4(C)C)ccc3C)cnc2N)on1 [Example 19.9, trifluoroacetic acid salt]
Given back: 5.72

----------
- TEST_TARGET: PI 3-kinase alpha (Rat-1 pBABEpuro Myr-HA-hp110 alpha cells) (Homo sapiens (Human))
- Sequence (P42336 whole entry, looked up): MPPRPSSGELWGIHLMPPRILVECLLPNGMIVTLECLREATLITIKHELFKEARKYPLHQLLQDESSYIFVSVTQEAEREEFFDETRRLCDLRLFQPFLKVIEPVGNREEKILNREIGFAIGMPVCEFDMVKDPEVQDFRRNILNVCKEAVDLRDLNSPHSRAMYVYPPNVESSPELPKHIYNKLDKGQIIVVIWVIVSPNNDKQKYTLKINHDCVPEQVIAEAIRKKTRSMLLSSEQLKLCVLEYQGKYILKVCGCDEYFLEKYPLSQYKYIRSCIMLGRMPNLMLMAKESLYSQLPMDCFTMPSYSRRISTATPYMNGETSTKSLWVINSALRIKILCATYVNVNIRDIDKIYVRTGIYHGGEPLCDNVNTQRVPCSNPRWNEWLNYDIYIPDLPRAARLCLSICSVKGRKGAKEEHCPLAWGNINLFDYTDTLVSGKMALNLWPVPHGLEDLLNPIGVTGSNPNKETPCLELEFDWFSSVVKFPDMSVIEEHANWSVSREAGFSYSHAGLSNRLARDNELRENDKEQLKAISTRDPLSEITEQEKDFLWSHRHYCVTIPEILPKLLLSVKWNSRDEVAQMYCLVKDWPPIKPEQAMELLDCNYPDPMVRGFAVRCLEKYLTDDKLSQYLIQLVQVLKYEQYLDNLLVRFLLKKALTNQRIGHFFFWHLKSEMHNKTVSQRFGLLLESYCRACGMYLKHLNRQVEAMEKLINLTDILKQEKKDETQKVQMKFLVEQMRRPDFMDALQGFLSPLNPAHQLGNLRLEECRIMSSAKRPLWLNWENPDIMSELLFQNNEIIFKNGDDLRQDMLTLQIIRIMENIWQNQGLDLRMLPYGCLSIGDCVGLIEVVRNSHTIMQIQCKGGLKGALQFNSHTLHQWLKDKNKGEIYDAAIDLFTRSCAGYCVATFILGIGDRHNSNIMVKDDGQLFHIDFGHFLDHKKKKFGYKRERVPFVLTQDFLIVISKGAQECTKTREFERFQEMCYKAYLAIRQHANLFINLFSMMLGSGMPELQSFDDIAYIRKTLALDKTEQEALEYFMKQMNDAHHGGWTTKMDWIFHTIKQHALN
- Sequence (Q63787 whole entry partner, looked up): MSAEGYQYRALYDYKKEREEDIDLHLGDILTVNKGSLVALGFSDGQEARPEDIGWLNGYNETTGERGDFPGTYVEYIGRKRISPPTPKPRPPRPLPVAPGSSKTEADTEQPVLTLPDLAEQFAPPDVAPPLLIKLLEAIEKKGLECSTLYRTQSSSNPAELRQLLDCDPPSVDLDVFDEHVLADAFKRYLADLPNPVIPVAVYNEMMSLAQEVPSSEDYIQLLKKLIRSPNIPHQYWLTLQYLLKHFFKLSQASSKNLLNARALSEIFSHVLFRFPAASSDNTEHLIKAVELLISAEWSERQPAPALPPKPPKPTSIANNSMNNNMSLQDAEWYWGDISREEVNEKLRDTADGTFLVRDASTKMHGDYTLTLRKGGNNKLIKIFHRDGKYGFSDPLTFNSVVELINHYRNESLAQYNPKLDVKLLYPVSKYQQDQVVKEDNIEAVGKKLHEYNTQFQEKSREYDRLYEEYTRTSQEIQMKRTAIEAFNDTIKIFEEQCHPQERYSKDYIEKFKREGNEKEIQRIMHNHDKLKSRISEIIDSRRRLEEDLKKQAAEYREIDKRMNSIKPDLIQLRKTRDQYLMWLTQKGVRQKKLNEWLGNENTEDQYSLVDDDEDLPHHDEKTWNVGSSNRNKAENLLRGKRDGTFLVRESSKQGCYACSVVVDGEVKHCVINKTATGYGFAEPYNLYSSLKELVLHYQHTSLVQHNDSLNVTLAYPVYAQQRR
- METHOD_DESCRIPTION: cell-based
pIC50: −log10 of the molar value. Structures can show the parent of a compound that is named as a salt.
PARAMETER: pIC50

Asked: Given the compound Cc1cc(-c2cc(-c3cc(S(=O)(=O)N4CC(N(C)C)C4)ccc3C)cnc2N)on1 [Example 19.19, acetic acid salt] , what is its reported pIC50?
Given back: < 5.00

----------
- TEST_TARGET: PI 3-kinase alpha (Rat-1 pBABEpuro Myr-HA-hp110 alpha cells) (Homo sapiens (Human))
- METHOD_DESCRIPTION: cell-based
- EXPERIMENTAL_SETUP: Assay H PI3Kα IC50
PARAMETER: pIC50
Just the number, please; pIC50 means minus log10 of the concentration in mol/L.

Asked: Lab note: need pIC50 with PI 3-kinase alpha (Rat-1 pBABEpuro Myr-HA-hp110 alpha cells) (Homo sapiens (Human)) for entry Cc1noc(-c2cc(-c3cc(S(=O)(=O)NCC(C)(C)O)c(C)cc3C)cnc2N)n1 , please look it up.
Given back: 5.38
